B1: Segment polarity protein dishevelled homolog DVL-3, residues 2 to 81; numbered along this chain, Q92997 (parent)
chain: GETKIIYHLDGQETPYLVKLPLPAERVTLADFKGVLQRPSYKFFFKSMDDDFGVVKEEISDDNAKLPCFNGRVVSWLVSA

- Variants of: B1
- TEST DESCRIPTION: abundance fitness (aPCA) (normalised: wild type 0, dead -1); higher = more abundant; growth selection in yeast, the domain comes from the species named
- CONDITION PARAMETERS: Homo sapiens
Returns one of Satisfied or Not satisfied; Satisfied when abundance fitness is >= -0.4.

>  <MUTATION LIST>
K56V

>  <QUALITATIVE LABEL>
Satisfied

$$$$
>  <MUTATION LIST>
E57K

>  <QUALITATIVE LABEL>
Satisfied

$$$$
>  <MUTATION LIST>
N70S

>  <QUALITATIVE LABEL>
Not satisfied

$$$$
>  <MUTATION LIST>
V54N

>  <QUALITATIVE LABEL>
Satisfied

$$$$

Next:
Query string: // inclusive: abundance fitness at least -0.4? input: K56E
Result string: Not satisfied
